Source: patent US20250101437

Tested Target: OC43 spike RBD (Human coronavirus OC43, UniProt P36334 P36334:333-607)
Sequence (P36334 333-607, one chain of several): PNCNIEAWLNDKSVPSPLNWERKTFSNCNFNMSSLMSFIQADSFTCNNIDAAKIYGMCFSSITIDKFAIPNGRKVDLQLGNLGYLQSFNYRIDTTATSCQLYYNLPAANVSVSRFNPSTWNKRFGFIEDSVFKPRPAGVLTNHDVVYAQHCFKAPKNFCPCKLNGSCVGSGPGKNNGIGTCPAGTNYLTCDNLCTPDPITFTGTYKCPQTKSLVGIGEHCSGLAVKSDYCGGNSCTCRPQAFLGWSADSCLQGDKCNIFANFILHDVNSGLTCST
Method Notes: filter; dot blot; very weak binding
Condition Label: label: 5'-32P; four-way junction (proposed)
pKd: −log10 of the molar value.
Property: pKd

Name the reported pKd value associated with the binder MSA52 (ssDNA) DNA: TTACGTCAAGGTGTCACTCCGTAGGGTTTGGCTCCGGGCCTGGCGTCGGTCGTCTCTCGCGAAGCATCTCTTTGGCGTG < 6.70
